- test details: In vitro cytotoxicity of L929 cells (AlamarBlue)
- Assay type: cell-based, mice
- measurement context: mouse, four days
Exercise: state measured CC50 at 4 days for each of the molecules provided.
# unit: µM | format: bare number

Exercise: Dear colleague, please send me the reported CC50 at 4 days for O=C(Cn1ccnc1[N+](=O)[O-])c1ccc(F)cc1F [Compound 6] when you can.
Key: 629

Exercise: Dear colleague, please send me the reported CC50 at 4 days for O=C(Cn1cnc([N+](=O)[O-])n1)c1ccc(F)cc1F [Compound 5] when you can.
Key: 1200

Exercise: Dear colleague, please send me the reported CC50 at 4 days for O=[N+]([O-])c1ncn(CC(O)c2ccc(F)cc2F)n1 (stereo not drawn) [Compound 8] when you can.
Key: 1200

Exercise: Dear colleague, please send me the reported CC50 at 4 days for O=C(Cn1ccnc1[N+](=O)[O-])NCc1ccccc1 [BZN, benznidazole, reference compound] when you can.
Key: 2110

These entries and their values trace back to paper PMC10672842.
